tested on: Human fibroblast BJ; assay: Cytotoxicity MTT assay, BJ human fibroblast cells; format: cell-based; conditions: 48 hrs, ± SD from three independent experiments, NA: did not show activity at 30 µM
pIC50: −log10 of the molar value.
Test Readout: pIC50

[in] Which value of pIC50 has been reported for O=C(CC(c1cc2ccccc2o1)c1c[nH]c2ccc(Br)cc12)c1ccc(F)cc1 (centres unmarked) in the records?
[out] < 4.52

[in] Endpoint output: pIC50 of O=C(CC(c1cc2ccccc2o1)c1c[nH]c2ccccc12)c1ccc(F)cc1 (centres unmarked) . Value?
[out] < 4.52

###

Listed below: melting point values for each entry.

[in] Which melting point is reported for this molecule? COc1ccccc1C(=O)CC(c1cc2ccccc2o1)c1c[nH]c2ccc(Br)cc12 (centres unmarked) [Compound 3s]
[out] 60 to 61 °C

[in] Could you share which melting point value was measured for O=C(CC(c1cc2ccccc2o1)c1c[nH]c2ccccc12)c1ccc(Cl)cc1 (centres unmarked) [Compound 3f] ?
[out] 126 to 127 °C
